target: PRMT5 (Homo sapiens, UniProt O14744); construct: purchased Viva (custom protein); test: PRMT5 IC50 assay in the presence of MTA as cofactor; type: biochemical; conditions: PRMT5, MTA as cofactor
Sequence (O14744 whole entry): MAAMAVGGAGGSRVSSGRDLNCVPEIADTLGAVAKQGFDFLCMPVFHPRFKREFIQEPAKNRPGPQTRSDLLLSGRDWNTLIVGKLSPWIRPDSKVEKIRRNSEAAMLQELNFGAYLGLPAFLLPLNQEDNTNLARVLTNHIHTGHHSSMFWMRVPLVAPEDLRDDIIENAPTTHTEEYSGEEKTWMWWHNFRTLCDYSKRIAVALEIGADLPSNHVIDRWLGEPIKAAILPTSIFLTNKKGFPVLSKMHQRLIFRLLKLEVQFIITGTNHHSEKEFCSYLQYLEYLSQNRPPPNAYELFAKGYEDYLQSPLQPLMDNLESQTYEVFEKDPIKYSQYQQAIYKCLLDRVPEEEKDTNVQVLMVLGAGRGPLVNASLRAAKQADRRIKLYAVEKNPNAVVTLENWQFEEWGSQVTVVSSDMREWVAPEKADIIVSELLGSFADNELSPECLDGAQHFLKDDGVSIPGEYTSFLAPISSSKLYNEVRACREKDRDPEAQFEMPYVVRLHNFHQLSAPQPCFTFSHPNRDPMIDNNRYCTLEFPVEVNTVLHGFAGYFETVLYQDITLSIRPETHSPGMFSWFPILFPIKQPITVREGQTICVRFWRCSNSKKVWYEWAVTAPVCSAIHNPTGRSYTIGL
Sequence (Q9BQA1 whole entry partner): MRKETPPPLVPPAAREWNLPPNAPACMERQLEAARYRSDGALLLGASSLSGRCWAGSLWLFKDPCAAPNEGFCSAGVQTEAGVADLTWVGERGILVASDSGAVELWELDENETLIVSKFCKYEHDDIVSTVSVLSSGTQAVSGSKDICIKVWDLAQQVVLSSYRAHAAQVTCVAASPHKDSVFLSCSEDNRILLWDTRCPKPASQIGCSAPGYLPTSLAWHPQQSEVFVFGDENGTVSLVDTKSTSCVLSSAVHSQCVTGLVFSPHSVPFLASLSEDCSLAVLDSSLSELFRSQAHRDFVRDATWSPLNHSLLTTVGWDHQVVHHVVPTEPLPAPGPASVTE
pIC50: −log10 of the molar value.
REPORTED_ENDPOINT: pIC50

- MOLECULE: "O=C(NC[C@H](O)CN1CCc2cc(OCc3cnco3)ccc2C1)c1ccnc(NC2CN(C(=O)C3CC3)C2)c1"
  pIC50: "6.30 to 7.30"
- MOLECULE: "CCC(=O)N1CCN(c2cc(C(=O)NC[C@H](O)CN3CCc4c(ccc(OCc5ocnc5C)c4C)C3)cc(NC3CCC3)n2)CC1"
  pIC50: "6.30 to 7.30"
- MOLECULE: "Cc1c(OCc2cnco2)ccc2c1CCN(C[C@@H](O)CNC(=O)c1cc(NC3CCN(C(=O)CC(C)C)CC3)ncn1)C2"
  pIC50: "6.30 to 7.30"

Prompt line: Looking for the measured pIC50 of `CC(=O)N1CCN(c2nc(NC3COC3)cc(C(=O)NC[C@H](O)CN3CCc4c(ccc(OCc5ocnc5C)c4C)C3)n2)CC1` , can you help?
Response line: 6.30 to 7.30

Prompt line: Another molecule to look at: `O=C(NC[C@H](O)CN1CCc2cc(OCc3cnco3)ccc2C1)c1cc(NC2CCC2)nc(N2CCN(C(=O)C3CC3)CC2)c1`
Response line: 6.30 to 7.30

Prompt line: Another molecule to look at: `Cc1c(OCc2cnco2)ccc2c1CCN(C[C@@H](O)CNC(=O)c1ccnc(NC3CCC3)c1)C2`
Response line: 6.30 to 7.30
